TARGET OR TEST SYSTEM: D(2) dopamine receptor (Homo sapiens, UniProt P14416)
Sequence (P14416 whole entry): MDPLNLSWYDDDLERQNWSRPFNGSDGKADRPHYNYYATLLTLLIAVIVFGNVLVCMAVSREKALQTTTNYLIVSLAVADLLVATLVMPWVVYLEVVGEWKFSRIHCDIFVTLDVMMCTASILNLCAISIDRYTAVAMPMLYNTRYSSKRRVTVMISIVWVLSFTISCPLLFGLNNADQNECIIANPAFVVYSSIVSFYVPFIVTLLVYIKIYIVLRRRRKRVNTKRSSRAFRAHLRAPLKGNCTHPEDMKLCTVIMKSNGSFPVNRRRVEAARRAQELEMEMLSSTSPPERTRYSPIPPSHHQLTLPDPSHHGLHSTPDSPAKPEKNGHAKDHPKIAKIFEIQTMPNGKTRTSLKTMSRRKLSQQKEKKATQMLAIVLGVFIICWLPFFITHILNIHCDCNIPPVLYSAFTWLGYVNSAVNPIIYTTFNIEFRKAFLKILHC
MEASUREMENT NOTES: Ability to displace [125I]sulpiride from human Dopamine receptor D2, expressed in CHO cells
# pKi values compiled below
// field semantics: pKi = negative decimal log of concentration (mol/L)

Before answering, review these 2 worked examples.
> print(dat)
                                   compound                     target.or.test.system  numeric.value
1  COc1ccc(S(=O)(=O)N(C)c2ccccc2)cc1-c1ccc(CN2CCCCCC2c2ccccc2)[nH]1 (stereo unspecified)  D(2) dopamine receptor (Homo sapiens, UniProt P14416)           6.20
2  CCN(Cc1ccccc1)S(=O)(=O)c1ccc(OC)c(-c2ccc(CN3CCCCCC3c3ccccc3)[nH]2)c1 (stereo unspecified)  D(2) dopamine receptor (Homo sapiens, UniProt P14416)           6.30

Given COc1ccc(S(=O)(=O)Oc2ccccc2)cc1-c1ccc(CN2CCCCCC2c2ccccc2)[nH]1 (stereo unspecified) , respond with its pKi. 6.00

Given COc1ccc(S(=O)(=O)Nc2ccccc2)cc1-c1ccc(CN2CCCCCC2c2ccccc2)[nH]1 (stereo unspecified) , respond with its pKi. 6.20

Given COc1ccc(S(=O)(=O)N2CCOCC2)cc1-c1ccc(CN2CCCCCC2c2ccccc2)[nH]1 (stereo unspecified) , respond with its pKi. 7.00

Given "CCS(=O)(=O)c1ccc(OC)c(-c2ccc(CN3CCCCC[C@@H]3c3ccccc3)[nH]2)c1" , respond with its pKi. 7.60

Given "CCS(=O)(=O)c1ccc(OC)c(-c2ccc(CN3CCCCC[C@H]3c3ccccc3)[nH]2)c1" , respond with its pKi. 7.00

----------
# Ki values compiled below
TARGET OR TEST SYSTEM: UniProt P14416
MEASUREMENT NOTES: Ability to displace [125I]sulpiride from human Dopamine receptor D2, expressed in CHO cells
Express your answer in nM, writing the number without its unit.

Before answering, review these 3 worked examples.
> print(dat)
                                   molecule  unit.of.measurement  numeric.value
1  COc1ccc(S(=O)(=O)N(C)c2ccccc2)cc1-c1ccc(CN2CCCCC[C@@H]2c2ccccc2)[nH]1                   nM            501
2  COc1ccc(S(=O)(=O)N(C)c2ccccc2)cc1-c1ccc(CN2CCCCC[C@H]2c2ccccc2)[nH]1                   nM           1580
3  COc1ccc(S(=O)(=O)N2CCCc3ccccc32)cc1-c1ccc(CN2CCCCCC2c2ccccc2)[nH]1 (centres undefined)                   nM           1000

Let us examine a further case.
Given COc1ccc(S(=O)(=O)N(C)C)cc1-c1ccc(CN2CCCCCC2c2ccccc2)[nH]1 (centres undefined) , respond with its Ki. 100

----------
TARGET OR TEST SYSTEM: Dopamine receptors; D2 & D3 (Homo sapiens) (UniProt P14416+P35462)
MEASUREMENT NOTES: Ratio of human dopamine D3 receptor to that of human dopamine D2 receptor was evaluated
Assay type: protein assay
# Selectivity values compiled below
Reply briefly: the number, and no unit.

Before answering, review these 3 worked examples.
> print(dat)
                                   compound                     target.or.test.system  numeric.value
1  CCN(Cc1ccccc1)S(=O)(=O)c1ccc(OC)c(-c2ccc(CN3CCCCCC3c3ccccc3)[nH]2)c1 (centres undefined)  Dopamine receptors; D2 & D3 (Homo sapiens) (UniProt P14416+P35462)             80
2  COc1ccc(S(=O)(=O)N2CCc3ccccc3C2)cc1-c1ccc(CN2CCCCCC2c2ccccc2)[nH]1 (centres undefined)  Dopamine receptors; D2 & D3 (Homo sapiens) (UniProt P14416+P35462)            100
3  CCS(=O)(=O)c1ccc(OC)c(-c2ccc(CN3CCCCCC3c3ccccc3)[nH]2)c1 (centres undefined)  Dopamine receptors; D2 & D3 (Homo sapiens) (UniProt P14416+P35462)             30

Let us examine a further case.
Given COc1ccc(S(=O)(=O)Oc2ccccc2)cc1-c1ccc(CN2CCCCCC2c2ccccc2)[nH]1 (centres undefined) , respond with its Selectivity. 100
